Tested on: P. falciparum 3D7 growth, pLDH absorbance
Experiment: blood-stage malaria parasite growth potency – strain 3D7, dose response (AID 2305)
Please go through the items and note down their IC50.
One number for each entry, in nM.

# example entries with known answers
CC(N)(Cc1ccc(O)cc1)c1nn[nH]n1 (stereo not drawn) : 970
CCCCCCCCCc1c(C)[nH]c2ccccc2c1=O : 160
COc1ccc(-n2nc(C(=O)NCCC3=CCCCC3)c3ccccc3c2=O)cc1 : 680
O=[N+]([O-])c1cccc(CNCC2CCN(Cc3ccc(O)cc3)CC2)c1 : 670
COc1cc2c(cc1COc1ccccc1)CCN1Cc3cc(OC)c(OC)cc3CC21 (stereo not drawn) : 150
Cc1ccc2nc(C)cc(NN=Cc3ccccc3F)c2c1 : 170

# map each compound to its IC50
1. CN(C)CCCn1cc(C(=O)OC2C[C@H]3CC[C@@H](C2)N3C)c2cc(-c3ccccc3)ccc21 (stereo partly drawn)
2. Cc1ccc2c(=O)n(C)c(=O)n(C)c2n1
3. CN(C)c1ccc(-c2nc3ccc(N)cc3[nH]2)cc1
4. O=C(Nc1cccc(Cl)c1)N(CCCn1ccnc1)Cc1csc(-c2ccc(CNCc3ccccc3)cc2)n1

Found:
1. 840
2. 820
3. 240
4. 540

Respectfully, I request IC50 for each entry included below.
1. COc1ccc(C2C(C(=O)Nc3cc(OC)c(OC)c(OC)c3)c3cc(OC)c(OC)cc3C(=O)N2C)cc1 (stereo not drawn)
2. COc1ccc2nccc(N3CCN(CCNCc4ccc5c(n4)NC(=O)CS5)CC3)c2c1
3. O=S(=O)(Nc1cc2c(cc1O)CCNCC2)c1ccc(-c2ccc(Cl)cc2)cc1
4. CC(=O)OC[C@H]1O[C@@H](C#Cc2ccccc2)[C@H](OC(C)=O)[C@@H](OC(C)=O)[C@@H]1OC(C)=O
5. O=C(/C=C/c1c(Cl)cccc1Cl)NC1CCC(CN2CCC(c3c[nH]c4ccncc34)CC2)CC1 (stereo not drawn)

Found:
1: 800; 2: 950; 3: 980; 4: 280; 5: 160
